Data origin: the supplement of paper PMC4862054

Test system: CAL-148
assay-text: drug sensitivity score (DSS), CellTox Green (DSS (AUC-based score)); higher = stronger drug effect (viability inhibition or cytotoxicity); extreme values may be limits of the assay
condition-description: incubation time: 72 h
Kindly state drug sensitivity score for each of the entries shown.
Answers are plain numbers.

Worked cases, answers included:
c1cc(CN2CCCNCCNCCCNCC2)ccc1CN1CCCNCCNCCCNCC1 ... 0
COc1nc(N)nc2c1ncn2[C@@H]1O[C@H](CO)[C@@H](O)[C@@H]1O ... 0
Cn1cc(CNCC2CCN(c3ncc(C(=O)NO)cn3)CC2)c2ccccc21 ... 14.8

The recorded drug sensitivity score for COc1cc(CCc2cc(NC(=O)c3ccc(N4CC(C)NC(C)C4)cc3)n[nH]2)cc(OC)c1 (centres undefined) is 0.783

###

System: MDA-MB-453
assay-text: drug sensitivity score (DSS), CellTiter-Blue viability (DSS (AUC-based score)); higher = stronger viability inhibition; extreme values may be limits of the assay
condition-description: incubation time: 72 h
For each record, write down the corresponding drug sensitivity score.

Cn1cc(CNCC2CCN(c3ncc(C(=O)NO)cn3)CC2)c2ccccc21 ... 27.8
COc1cc(CCc2cc(NC(=O)c3ccc(N4CC(C)NC(C)C4)cc3)n[nH]2)cc(OC)c1 (stereo not drawn) ... 5.67
Nc1nc(=O)c2c([nH]1)NCC(CNc1ccc(C(=O)N[C@@H](CCC(=O)O)C(=O)O)cc1)N2C=O (mixture of isomers) ... 0
CS(=O)(=O)N1CCN(Cc2cc3nc(-c4cccc5[nH]ncc45)nc(N4CCOCC4)c3s2)CC1 ... 18.5
CCN(CC)CCNC(=O)c1c(C)[nH]c(/C=C2\C(=O)Nc3ccc(F)cc32)c1C ... 0

For each of the compounds below, state drug sensitivity score.
1. O=S(=O)(c1cccc2cnccc12)N1CCCNCC1
2. CO[C@@H](C(=O)N1Cc2[nH]nc(NC(=O)c3ccc(N4CCN(C)CC4)cc3)c2C1)c1ccccc1
3. O=C1c2c(O)ccc(O)c2C(=O)c2c(NCCNCCO)ccc(NCCNCCO)c21

0.912
18.4
4.9

###

Test system: CAL-51
assay-text: normalised response (% of control), CellTiter-Glo; higher = more viable cells (100 = DMSO, 0 = benzethonium chloride kill control)
condition-description: incubation time: 72 h
measured-quantity: normalised response (%)
One number for each entry, in %.

# annotated cases, reported normalised response shown
COc1cc(CCc2cc(NC(=O)c3ccc(N4CC(C)NC(C)C4)cc3)n[nH]2)cc(OC)c1 (stereo not drawn) [AZD4547] (10 nM) ... 111
COc1ccc(-c2cc3c(C)nc(N)nc3n([C@H]3CC[C@H](OCCO)CC3)c2=O)cn1 (100 nM) ... 53.4
COc1nc(N)nc2c1ncn2[C@@H]1O[C@H](CO)[C@@H](O)[C@@H]1O [Nelarabine] (100 nM) ... 90.7
CC/C(=C(\c1ccc(O)cc1)c1ccc(OCCN(C)C)cc1)c1ccccc1 [4-hydroxytamoxifen] (100 nM) ... 99
O=S(=O)(c1cccc2cnccc12)N1CCCNCC1 [Fasudil] (500 nM) ... 85.6
CC(C)N(CCCNC(=O)Nc1ccc(C(C)(C)C)cc1)C[C@H]1O[C@@H](n2cc(Br)c3c(N)ncnc32)[C@H](O)[C@@H]1O [SGC0946] (100 nM) ... 91.1
CCN(CC)CCNC(=O)c1c(C)[nH]c(/C=C2\C(=O)Nc3ccc(F)cc32)c1C [Sunitinib] (10 nM) ... 98.8

// next entry
For record C[C@]12O[C@H](C[C@]1(O)CO)n1c3ccccc3c3c4c(c5c6ccccc6n2c5c31)CNC4=O [Lestaurtinib] (10 nM) the listed normalised response is 103
